Value source: patent US20240299400A1

# Test system: GLI1 mRNA expression
# Method Summary: RT-qPCR GLI1 mRNA expression in OHCs-stimulated C3H10T1/2 MEFs
# Assay type: cell-based, mouse
# Protocol Conditions: C3H10T1/2 MEFs, 10 μM, relative to Hh-agonist OHCs (set as 100%), mean ± SEM
For each entry below, report its % Gli1 Expression value.
One number for each entry, in %.

The following compounds have reported results that may help.
Compound	Result Units	% Gli1 Expression
CCOc1ccc(C(Nc2ccccn2)c2ccc3ccc(C)nc3c2O)cc1 (racemic)	%	86.8
Oc1c(C(Nc2ccccn2)c2c(F)cccc2Cl)ccc2cccnc12 (racemic)	%	6.5

Please look at the following compound next.
Ask: // % Gli1 Expression lookup, key: Oc1c(C(Nc2ccccn2)c2ccc(Cl)c(Cl)c2)ccc2cccnc12 (racemic)
Reply: 4.2
